Here, each record is paired with measured inhibition at 10 µM data.
- Tested on: LOX IMVI
- protocol.notes: NCI-60 single-dose antiproliferative assay (SRB)
- Assay type: cell-based
- test.parameters: Homo sapiens, 10 μM single dose, Melanoma, read-out: Cell Growth inhibition Percent
# unit: % | format: bare number

Use these answered entries as a reference point.
NS(=O)(=O)c1ccc(NCc2ccc(NC=C3C(=O)Nc4ccccc43)cc2)cc1 [Compound 11a] :: 3.3
O=C1Nc2ccccc2C1=CNc1ccc(CNc2ccc(S(=O)(=O)Nc3ncccn3)cc2)cc1 [Compound 11b] :: 8.3
O=C1Nc2ccccc2C1=CNc1ccc(C(=O)C=CNc2nccs2)cc1 [Compound 13c] :: 9.06
O=C1Nc2ccccc2C1=CNc1ccc(C(=O)O)cc1 :: 6.93

input: So what's the measured inhibition at 10 µM for this one? O=C(Nc1ccc(NC=C2C(=O)Nc3ccccc32)cc1)Nc1nccs1 [Compound 15c]
output: 64.9

input: Suppose we examine the molecule O=C1Nc2ccccc2C1=CNc1ccc(C(=O)Nc2ccc(S(=O)(=O)Nc3ncccn3)cc2)cc1 ; what inhibition at 10 µM value has been reported?
output: 7.22

---

- Tested on: HCT-116
- protocol.notes: NCI-60 single-dose antiproliferative assay (SRB)
- Type: cell-based
- test.parameters: Homo sapiens; 10 μM single dose; HCT-116, Colon cancer; read-out: Cell Growth inhibition Percent
- Protocol: From the newly synthesized compounds, eleven compounds (4c, 4d, 5, 9a, 9b, 11a, 11b, 13b, 13c, 15b, and 15c) were selected by the National Cancer Institute (NCI) Developmental Therapeutics Program (DTP), Bethesda, Maryland, USA for the in vitro anti-proliferative activity evaluation. The selected compounds were examined at 10 μM dose against the NCI 60-cell line panel. […]
Examples of molecules with documented inhibition at 10 µM follow.
Write the value in % as a bare number.

O=C1Nc2ccccc2C1=CNc1ccc(C(=O)C=CNc2nccs2)cc1 [Compound 13c] :: 21.9
O=C(Nc1ccc(NC=C2C(=O)Nc3ccccc32)cc1)Nc1nccs1 [Compound 15c] :: 73
O=C(Nc1ccc(NC=C2C(=O)Nc3ccccc32)cc1)Nc1ccc(S(=O)(=O)Nc2ncccn2)cc1 [Compound 15b] :: 7.3

# next molecule below
input: Need inhibition at 10 µM, item O=C1Nc2ccccc2C1=CNc1ccc(CNc2ccc(S(=O)(=O)Nc3ncccn3)cc2)cc1 [Compound 11b]
output: 13.4

---

- system: hCA XII (Homo sapiens)
- Sequence (O43570 25-354): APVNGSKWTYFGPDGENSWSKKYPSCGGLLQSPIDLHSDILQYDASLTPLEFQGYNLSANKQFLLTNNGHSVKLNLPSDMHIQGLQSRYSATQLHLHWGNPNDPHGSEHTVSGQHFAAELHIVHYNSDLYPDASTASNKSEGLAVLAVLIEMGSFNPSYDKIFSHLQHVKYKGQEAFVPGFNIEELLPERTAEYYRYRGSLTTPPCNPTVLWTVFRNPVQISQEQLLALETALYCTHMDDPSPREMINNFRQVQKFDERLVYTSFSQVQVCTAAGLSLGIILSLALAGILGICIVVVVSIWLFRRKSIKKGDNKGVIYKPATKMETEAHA
- protocol.notes: Stopped flow CO2 hydrase assay
- test.parameters: Ki hCA II / Ki hCA XII
measurement.name: Selectivity ratio II/XII
Returns: the value as a bare number; no unit string appended.

Recorded results for 2 compounds are shown here.
NS(=O)(=O)c1ccc(NC=CC(=O)c2ccc(NC=C3C(=O)Nc4ccccc43)cc2)cc1 [Compound 13a] :: 1.68
NS(=O)(=O)c1ccc(NCc2ccc(NC=C3C(=O)Nc4ccccc43)cc2)cc1 [Compound 11a] :: 9.50

Please find the next compound below.
input: So what Selectivity ratio II/XII did NS(=O)(=O)c1ccc(NC(=O)c2ccc(NC=C3C(=O)Nc4ccccc43)cc2)cc1 get with hCA XII (Homo sapiens)?
output: 5.27

---

- system: hCA IX (Homo sapiens, UniProt Q16790)
- protocol.notes: Stopped flow CO2 hydrase assay
measurement.name: Ki

NS(=O)(=O)c1nnc(NC=C2C(=O)Nc3ccccc32)s1 :: 84.2 nM
NS(=O)(=O)c1ccc(NC=CC(=O)c2ccc(NC=C3C(=O)Nc4ccccc43)cc2)cc1 [Compound 13a] :: 91.3 nM

input: // Ki lookup, key: NS(=O)(=O)c1ccc(NCc2ccc(NC=C3C(=O)Nc4ccccc43)cc2)cc1 [Compound 11a]
output: 217 nM

input: What value of Ki has been reported for the following compound? O=C1Nc2ccccc2C1=CNc1ccc(C(=O)C=CNc2ccc(S(=O)(=O)Nc3ncccn3)cc2)cc1 [Compound 13b]
output: > 10000 nM

input: Given O=C1Nc2ccccc2C1=CNc1ccc(C(=O)C=CNc2nccs2)cc1 [Compound 13c] , state its recorded Ki.
output: > 10000 nM

input: Sample NS(=O)(=O)N/C=C1/C(=O)Nc2ccccc21 [Compound 5, 3-(sulfamidmethylene)indoline-2-one] — what was its Ki?
output: 208 nM

input: Entry under review: O=C1Nc2ccccc2C1=CNc1ccc(CNc2nccs2)cc1 [Compound 11c] . Reported Ki?
output: > 10000 nM

input: Recorded Ki for NS(=O)(=O)c1ccc(NC(=O)c2ccc(NC=C3C(=O)Nc4ccccc43)cc2)cc1 , please?
output: 68.8 nM

input: # input compound: O=C1Nc2ccccc2C1=CNc1ccc(C(=O)Nc2nccs2)cc1 ; wanted: its Ki
output: > 10000 nM

input: Can you share its Ki? I mean this compound: O=C1Nc2ccccc2C1=CNc1ccc(C(=O)O)cc1
output: > 10000 nM

---

- system: UniProtKB O43570
- protocol.notes: Stopped flow CO2 hydrase assay
measurement.name: Ki (nM)
Kindly provide the numeric value in nM only, without the unit symbol.

Known Ki results, listed for orientation:
NS(=O)(=O)OC=C1C(=O)Nc2ccccc21 [Compound 7, (2-Oxoindolin-3-ylidene)methyl sulfamate] :: 133
NS(=O)(=O)c1ccc(NC(=O)c2ccc(NC=C3C(=O)Nc4ccccc43)cc2)cc1 [Compound 9a] :: 59.4
NS(=O)(=O)c1ccc(NC(=O)Nc2ccc(NC=C3C(=O)Nc4ccccc43)cc2)cc1 [Compound 15a] :: 175

# next compound below
input: Quick one: Ki of NS(=O)(=O)c1ccc(NC=CC(=O)c2ccc(NC=C3C(=O)Nc4ccccc43)cc2)cc1 [Compound 13a] ?
output: 183

---

- Test system: SF-268
- protocol.notes: NCI-60 single-dose antiproliferative assay (SRB)
- Assay type: cell-based
- test.parameters: Homo sapiens; 10 μM single dose; SF-268, CNS cancer; read-out: Cell Growth inhibition Percent
measurement.name: inhibition at 10 µM (%)
Give a bare numeral; the unit % is implied.

Here are 5 compounds together with their reported answers.
O=C1Nc2ccccc2C1=CNc1ccc(C(=O)Nc2ccc(S(=O)(=O)Nc3ncccn3)cc2)cc1 :: 3.48
NS(=O)(=O)c1ccc(NCc2ccc(NC=C3C(=O)Nc4ccccc43)cc2)cc1 [Compound 11a] :: 11.3
O=C(Nc1ccc(NC=C2C(=O)Nc3ccccc32)cc1)Nc1nccs1 [Compound 15c] :: 22.8
O=C1Nc2ccccc2C1=CNc1ccc(CNc2ccc(S(=O)(=O)Nc3ncccn3)cc2)cc1 [Compound 11b] :: 1.02
NS(=O)(=O)N/C=C1/C(=O)Nc2ccccc21 [Compound 5, 3-(sulfamidmethylene)indoline-2-one] :: 2.04

We now examine a further compound.
input: I would be grateful if you could share the reported inhibition at 10 µM for O=C1Nc2ccccc2C1=CNc1ccc(C(=O)O)cc1 .
output: 16.4

---

- system: hCA XII (Homo sapiens)
- protocol.notes: Stopped flow CO2 hydrase assay
- test.parameters: Ki hCA I / Ki hCA XII
measurement.name: Selectivity ratio I/XII
// keep it numeric: no unit symbol after the value

// solved cases for Selectivity ratio I/XII follow
NS(=O)(=O)c1ccc(NCc2ccc(NC=C3C(=O)Nc4ccccc43)cc2)cc1 [Compound 11a] :: 4.08
NS(=O)(=O)c1ccc(NC(=O)Nc2ccc(NC=C3C(=O)Nc4ccccc43)cc2)cc1 [Compound 15a] :: 4.83
NS(=O)(=O)c1nnc(NC=C2C(=O)Nc3ccccc32)s1 :: 0.966

// next entry
input: Reported Selectivity ratio I/XII for NS(=O)(=O)c1ccc(NC(=O)c2ccc(NC=C3C(=O)Nc4ccccc43)cc2)cc1 : what is it?
output: 5.59

---

- system: hCA IX (Homo sapiens, UniProt Q16790)
- protocol.notes: Stopped flow CO2 hydrase assay
pKi: −log10 of the molar value.
measurement.name: pKi

Completed entries (count: 7):
NS(=O)(=O)OC=C1C(=O)Nc2ccccc21 [Compound 7, (2-Oxoindolin-3-ylidene)methyl sulfamate] :: 6.03
O=C1Nc2ccccc2C1=CNC1=NS(=O)(=O)c2ccccc21 :: < 5.00
O=C1Nc2ccccc2C1=CNc1ccc(C(=O)Nc2ccc(S(=O)(=O)Nc3ncccn3)cc2)cc1 :: < 5.00
NS(=O)(=O)c1ccc(NC(=O)Nc2ccc(NC=C3C(=O)Nc4ccccc43)cc2)cc1 [Compound 15a] :: 6.06
O=C(Nc1ccc(NC=C2C(=O)Nc3ccccc32)cc1)Nc1ccc(S(=O)(=O)Nc2ncccn2)cc1 [Compound 15b] :: < 5.00
O=C1Nc2ccccc2C1=CNc1ccc(S(=O)(=O)Nc2ncccn2)cc1 :: < 5.00
O=C1Nc2ccccc2C1=CNc1ccc(CNc2ccc(S(=O)(=O)Nc3ncccn3)cc2)cc1 [Compound 11b] :: 5.10

input: // returns reported pKi for input O=C(Nc1ccc(NC=C2C(=O)Nc3ccccc32)cc1)Nc1nccs1 [Compound 15c]
output: < 5.00

---

We begin with a simple list: items and their reported inhibition at 10 µM.
- System: OVCAR-4
- protocol.notes: NCI-60 single-dose antiproliferative assay (SRB)
- Format: cell-based
- test.parameters: Homo sapiens; 10 μM single dose; OVCAR-4, Ovarian Cancer; read-out: Cell Growth inhibition Percent
# number only, unit % dropped from output

NS(=O)(=O)c1nnc(NC=C2C(=O)Nc3ccccc32)s1 :: 1.55
O=C1Nc2ccccc2C1=CNc1ccc(CNc2ccc(S(=O)(=O)Nc3ncccn3)cc2)cc1 [Compound 11b] :: 11.5
NS(=O)(=O)c1ccc(NCc2ccc(NC=C3C(=O)Nc4ccccc43)cc2)cc1 [Compound 11a] :: 12.6
O=C(Nc1ccc(NC=C2C(=O)Nc3ccccc32)cc1)Nc1nccs1 [Compound 15c] :: 59.4
O=C1Nc2ccccc2C1=CNc1ccc(C(=O)C=CNc2nccs2)cc1 [Compound 13c] :: 3.49
O=C1Nc2ccccc2C1=CNc1ccc(C(=O)Nc2ccc(S(=O)(=O)Nc3ncccn3)cc2)cc1 :: 7.67

From here, focus on the item given below.
input: Notebook: pull reported inhibition at 10 µM for OVCAR-4, entry O=C1Nc2ccccc2C1=CNc1ccc(C(=O)O)cc1
output: 13.3
